Tested on: human sensory panel
Experiment: Human sensory panel, sweet taste versus reference water solution containing 4% sucrose
Assay type: in vivo
Settings: 10 ppm; 20 trained panelists; scale −5 (strong masking) to 5 (strong enhancing), 0 = reference water solution containing 4% sucrose
value-kind: Sweetness
Respond with the number and no other words.

| compound | measured-number |
| --- | --- |
| COc1cc(-c2cc(=O)c3c(OC)c(OC)c(OC)c(OC)c3o2)ccc1O | 0.17 |
| COc1cc(-c2cc(=O)c3c(OC)c(OC)c(OC)cc3o2)ccc1O [Cpd 101, 4′-hydroxy-5,6,7,3′-tetramethoxyflavone] | 0.58 |
| COc1cc2oc(-c3ccc(O)cc3)cc(=O)c2c(OC)c1OC [Cpd 104, 4′-Hydroxy-5,6,7-trimethoxyflavone] | 0.08 |

From here, focus on the item given below.
GET /value?item= COc1ccc(-c2cc(=O)c3c(OC)c(OC)c(OC)c(OC)c3o2)cc1O &field=Sweetness returns 0.03

Data origin, for the record: patent US20240114939A1
